Tested on: ZR-75-1
protocol-details: viability inhibition at highest dose (% inhibition); higher = more growth inhibition
test-conditions: 4-OH-tamoxifen in medium 0 µM; 72 h
measured-quantity: viability inhibition at highest dose
Answer using only a numeral; do not append any unit.

Please report the recorded viability inhibition at highest dose for CN(C)c1nc(N(C)C)nc(N(C)C)n1 [Altretamine] (drug 10000 nM) .
-19.3

Please report the recorded viability inhibition at highest dose for Cn1nnc2c(C(N)=O)ncn2c1=O [Temozolomide] (drug 10000 nM) .
11.9

Please report the recorded viability inhibition at highest dose for C#Cc1cccc(Nc2ncnc3cc(OCCOC)c(OCCOC)cc23)c1 [Erlotinib] (drug 10000 nM) .
3.58

====

Please provide measured drug sensitivity score for the entries that follow.
System: T-47D
protocol-details: drug sensitivity score (DSS) (DSS (dimensionless)); higher = more sensitive; extreme values may be limits of the assay
test-conditions: 4-OH-tamoxifen in medium 1 µM; 72 h
Structures can show the parent of a compound that is named as a salt.
Answer using only a numeral; do not append any unit.

Please report the recorded drug sensitivity score for Cn1nnc2c(C(N)=O)ncn2c1=O [Temozolomide] .
0

Please report the recorded drug sensitivity score for CO[C@H]1C[C@@H]2CC[C@@H](C)[C@@](O)(O2)C(=O)C(=O)N2CCCC[C@H]2C(=O)O[C@H]([C@H](C)C[C@@H]2CC[C@@H](OP(C)(C)=O)[C@H](OC)C2)CC(=O)[C@H](C)/C=C(\C)[C@@H](O)[C@@H](OC)C(=O)[C@H](C)C[C@H](C)/C=C/C=C/C=C/1C [Ridaforolimus] .
1.51

Please report the recorded drug sensitivity score for O=C(Nc1ccncc1)C(=O)c1cn(Cc2ccc(Cl)cc2)c2ccccc12 [Indibulin] .
0.395

Please report the recorded drug sensitivity score for COc1ccc(-c2cc3c(C)nc(N)nc3n([C@H]3CC[C@H](OCCO)CC3)c2=O)cn1 .
15.4

Please report the recorded drug sensitivity score for O=C(O)CC[C@H]1CC[C@@](c2cc(F)ccc2F)(S(=O)(=O)c2ccc(Cl)cc2)CC1 [MK-0752] .
0

Please report the recorded drug sensitivity score for NC(=O)c1ccc(I)c([N+](=O)[O-])c1 .
0

Please report the recorded drug sensitivity score for C=CCN(/C=C1/C(=O)O[C@H](COC)[C@@]2(C)C1=C(O)C(=O)C1=C2[C@H](OC(C)=O)C[C@]2(C)C(=O)CC[C@@H]12)CC=C [Sonolisib (PX-866)] .
0

Please report the recorded drug sensitivity score for Cn1cnc2c(F)c(Nc3ccc(Br)cc3F)c(C(=O)NOCCO)cc21 [MEK-162 (ARRY-162)] .
0

Please report the recorded drug sensitivity score for O=NN(CCCl)C(=O)NCCCl [Carmustine] .
0

Please report the recorded drug sensitivity score for Cc1c(C(=O)Nc2ccc(N3C[C@@H](C)O[C@@H](C)C3)nc2)cccc1-c1ccc(OC(F)(F)F)cc1 [Erismodegib (NVP-LDE225)] .
0

Please report the recorded drug sensitivity score for C#Cc1cccc(Nc2ncnc3cc(OCCOC)c(OCCOC)cc23)c1 [Erlotinib] .
0

Please report the recorded drug sensitivity score for O=C1CCC(N2C(=O)c3ccccc3C2=O)C(=O)N1 (configuration not stated) [Thalidomide] .
0

Please report the recorded drug sensitivity score for Cc1cnc(NC(=O)Nc2cc(Br)c(C)cc2OC[C@@H]2CNCCO2)cn1 .
0

Please report the recorded drug sensitivity score for CCN(CC)CCOc1ccc(C(=C(Cl)c2ccccc2)c2ccccc2)cc1 [Clomifene citrate] .
1.21

Please report the recorded drug sensitivity score for Cc1ccc(-n2nc(C(C)(C)C)cc2NC(=O)Nc2ccc(OCCN3CCOCC3)c3ccccc23)cc1 [Doramapimod (BIRB 796)] .
0

Please report the recorded drug sensitivity score for CCN(CC)CCCC(C)Nc1ccnc2cc(Cl)ccc12 (configuration not stated) [Chloroquine] .
0

Please report the recorded drug sensitivity score for CCc1cncnc1N1CCN(Cc2nc3ccc(C(F)(F)F)cc3[nH]2)CC1 .
0.435

Please report the recorded drug sensitivity score for COc1cc2ncnc(Nc3ccc(F)c(Cl)c3)c2cc1OCCCN1CCOCC1 [Gefitinib] .
0

Please report the recorded drug sensitivity score for Cc1c(CN2CCN(C(=O)[C@H](C)O)CC2)sc2c(N3CCOCC3)nc(-c3cnc(N)nc3)nc12 [GDC-0980] .
12.1

Please report the recorded drug sensitivity score for Nc1cccc2c1CN(C1CCC(=O)NC1=O)C2=O (configuration not stated) [Lenalidomide] .
0

Please report the recorded drug sensitivity score for O=C(CCCCCCC(=O)Nc1ccccc1)NO [Vorinostat] .
4.3

Please report the recorded drug sensitivity score for CO[C@H](C(=O)[C@@H](O)[C@@H](C)O)[C@@H]1Cc2cc3cc(O[C@H]4C[C@@H](O[C@@H]5C[C@@H](O)[C@H](O)[C@@H](C)O5)[C@H](O)[C@@H](C)O4)c(C)c(O)c3c(O)c2C(=O)[C@H]1O[C@H]1C[C@@H](O[C@@H]2C[C@@H](O)[C@@H](O[C@@H]3C[C@](C)(O)[C@H](O)[C@@H](C)O3)[C@@H](C)O2)[C@H](O)[C@@H](C)O1 [Plicamycin (Mithramycin A)] .
13.2
